assay_target: human orexin type 2 receptor (Homo sapiens, UniProt O43614)
Construct: expressed in transfected cells
Sequence (O43614 whole entry): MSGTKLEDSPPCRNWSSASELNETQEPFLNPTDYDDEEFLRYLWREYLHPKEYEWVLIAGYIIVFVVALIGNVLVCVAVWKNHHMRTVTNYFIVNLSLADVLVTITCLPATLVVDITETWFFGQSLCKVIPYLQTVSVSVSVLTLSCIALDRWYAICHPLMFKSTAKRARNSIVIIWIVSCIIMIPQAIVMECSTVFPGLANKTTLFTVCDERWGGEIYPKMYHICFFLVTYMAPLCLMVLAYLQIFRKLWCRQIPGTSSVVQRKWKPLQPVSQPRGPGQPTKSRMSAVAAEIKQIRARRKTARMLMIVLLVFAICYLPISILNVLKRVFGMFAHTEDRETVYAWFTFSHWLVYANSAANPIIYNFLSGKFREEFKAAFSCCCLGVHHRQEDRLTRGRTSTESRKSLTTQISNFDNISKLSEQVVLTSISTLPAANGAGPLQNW
assay: Measurement of orexin type 2 receptor agonist activity (calcium fluorescence, Fluo-4 AM, FDSS)
Assay type: cell-based
test_settings: compound at 3 μM; CHO cells forcibly expressing human OX2 receptor; DMSO = 0%, orexin A (human) 10 nM = 100%
assay_endpoint: OX2R agonist activity (3 μ M, %)
Write down the numeric answer in % and omit the unit.

Worked examples follow.
molecule: CCNC(=O)N1CCCC(NC(=O)C(=O)N(C)C)C1CO[C@H]1CC[C@@H](c2ccc(F)cc2)CC1 (stereo partly shown) [Example 19]
assay_target: human orexin type 2 receptor (Homo sapiens, UniProt O43614)
quantitative_result: 75

molecule: O=C(NC1CCCN(C(=O)N2CCC2)C1COC1CCN(c2ncc(F)cn2)CC1)[C@@H]1CCCO1 (stereo in doubt) [Example 8]
assay_target: human orexin type 2 receptor (Homo sapiens, UniProt O43614)
quantitative_result: 83

molecule: O=C(NC1CCCN(C(=O)C2CCC2)C1COC1CCN(c2ncc(F)cn2)CC1)[C@@H]1CCCO1 (stereo in doubt) [Example 12]
assay_target: human orexin type 2 receptor (Homo sapiens, UniProt O43614)
quantitative_result: 99

Ask | Field: OX2R agonist activity (3 μ M, %) (human orexin type 2 receptor (Homo sapiens, UniProt O43614)). Entry: O=C(NC1CCCN(C(=O)N2CCC2)C1COC1CCN(c2ncccn2)CC1)[C@@H]1CCCO1 (stereo in doubt) [Example 7]
Reply | 67

Ask | Field: OX2R agonist activity (3 μ M, %) (human orexin type 2 receptor (Homo sapiens, UniProt O43614)). Entry: CN(C)C(=O)C(=O)NC1CCCN(C(=O)C2CCC2)C1COC1CCN(c2ncc(F)cn2)CC1 (stereo not shown) [Example 4]
Reply | 84

Ask | Field: OX2R agonist activity (3 μ M, %) (human orexin type 2 receptor (Homo sapiens, UniProt O43614)). Entry: CC(C)OC(=O)N1CCCC(NC(=O)[C@@H]2CCCO2)C1COC1CCN(c2ncccn2)CC1 (stereo in doubt) [Example 15]
Reply | 96

Ask | Field: OX2R agonist activity (3 μ M, %) (human orexin type 2 receptor (Homo sapiens, UniProt O43614)). Entry: CC(C)OC(=O)N1CCCC(NC(=O)[C@@H]2CCCO2)C1COC1CCN(c2ncc(F)cn2)CC1 (stereo in doubt) [Example 16]
Reply | 95

Ask | Field: OX2R agonist activity (3 μ M, %) (human orexin type 2 receptor (Homo sapiens, UniProt O43614)). Entry: O=C(NC1CCCN(C(=O)C2(O)CCC2)C1COC1CCN(c2ncc(F)cn2)CC1)[C@@H]1CCCO1 (stereo in doubt) [Example 14]
Reply | 92

Ask | Field: OX2R agonist activity (3 μ M, %) (human orexin type 2 receptor (Homo sapiens, UniProt O43614)). Entry: CCNC(=O)N1CCCC(NC(=O)C(=O)N(C)C)C1CO[C@H]1CC[C@@H](c2ccccc2F)CC1 (stereo partly shown) [Example 22]
Reply | 99

Ask | Field: OX2R agonist activity (3 μ M, %) (human orexin type 2 receptor (Homo sapiens, UniProt O43614)). Entry: O=C(NC1CCCN(C(=O)C2CCC2)C1COC1CCN(c2ncccn2)CC1)[C@@H]1CCCO1 (stereo in doubt) [Example 11]
Reply | 94

Ask | Field: OX2R agonist activity (3 μ M, %) (human orexin type 2 receptor (Homo sapiens, UniProt O43614)). Entry: O=C(NC1CCCN(C(=O)C2(O)CCC2)C1COC1CCN(c2ncccn2)CC1)[C@@H]1CCCO1 (stereo in doubt) [Example 13]
Reply | 81

Ask | Field: OX2R agonist activity (3 μ M, %) (human orexin type 2 receptor (Homo sapiens, UniProt O43614)). Entry: CCNC(=O)N1CCCC(NC(=O)C(=O)N(C)C)C1CO[C@H]1CC[C@@H](c2ccccc2)CC1 (stereo partly shown) [Example 18]
Reply | 98

Ask | Field: OX2R agonist activity (3 μ M, %) (human orexin type 2 receptor (Homo sapiens, UniProt O43614)). Entry: CCNC(=O)N1CCCC(NC(=O)C(=O)N(C)C)C1CO[C@H]1CC[C@@H](c2cccc(F)c2)CC1 (stereo partly shown) [Example 21]
Reply | 102
